PROTOCOL: Human HepG2 cell viability assay in 384 well format
Assay type: toxicity, cell-based
Parameters: dose 125 nL, time 70.5 hour; concentration not given beside the values
CONDITIONS_USED: HepG2 cells, read-out: Inhibition
PROPERTY_LABEL: cytotoxicity at 70.5 h (%)
Could you give me the number in %? Just the number is fine.

# example entries with known answers
| COMPOUND | cytotoxicity at 70.5 h (%) |
| --- | --- |
| C=C(C)COc1ccccc1NC(=O)NC1CCOCC1 | 2.28 |
| CCc1cc(C(F)(F)F)c2c(C)nn(CC(=O)O)c2n1 | 4.66 |
| COc1ccc(C)cc1CN(C)Cc1nc2c(cnn2C)c(=O)[nH]1 | -7.21 |
| Cc1[nH]c2c(F)cccc2c1CC(=O)NC1CCCCNC1=O (configuration not stated) | 24.9 |
| Cc1ccc(C(=O)Nc2ccc(N3CCC(O)CC3)c(C#N)c2)s1 | 29.7 |

Task item: Fill in cytotoxicity at 70.5 h for record Cc1cccc(C(C(=O)N2CC(c3ccncc3)C2)N(C)C)c1 (configuration not stated)
Reply: 12.4

Task item: Fill in cytotoxicity at 70.5 h for record Cc1cc(NC(=O)N2CCCC(O)C2)nn1-c1ccccc1Cl (configuration not stated)
Reply: -5.66

Task item: Fill in cytotoxicity at 70.5 h for record "O=C(Cc1ccco1)N1C[C@H]2CCC[C@@]2(COc2cccnc2)C1"
Reply: -5.14

Task item: Fill in cytotoxicity at 70.5 h for record "CNC(=O)CSc1nc2c(cnn2Cc2ccc(F)cc2)c(=O)[nH]1"
Reply: 13.5

Task item: Fill in cytotoxicity at 70.5 h for record "Cc1cc(N[C@H]2CCCC[C@@H]2O)n2nccc2n1"
Reply: 5.62

Task item: Fill in cytotoxicity at 70.5 h for record "O=C(CCn1c(C(F)(F)F)cc2cccnc21)NC1CCCC1"
Reply: -3.77

Task item: Fill in cytotoxicity at 70.5 h for record Cc1cc(N(C)C)nc(C2COCCN2Cc2cc(C)on2)n1 (configuration not stated)
Reply: -7.49

Task item: Fill in cytotoxicity at 70.5 h for record "COc1cccc(OCC(=O)NS(=O)(=O)c2ccc(C)s2)c1"
Reply: 14

* * *

Entries and their cytotoxicity at 70.5 h values follow.
PROTOCOL: Human HepG2 cell viability assay in 384 well format
Assay type: toxicity, cell-based
Design: dose 125 nL, time 70.5 hour; concentration not given beside the values
CONDITIONS_USED: HepG2 cells, read-out: Inhibition
Could you give me the number in %? Just the number is fine.

| COMPOUND | cytotoxicity at 70.5 h, % |
| --- | --- |
| O=C(NCCc1[nH]nc2c1CCCC2)C1CCCN(Cc2ccco2)C1 (centres undefined) | -2.55 |
| CCOc1cc(C)ccc1NS(=O)(=O)c1cc(C)c(C(=O)O)s1 | -1.53 |
| COCCCOc1ccc(C(=O)N(C)CCC(C)C)cn1 | 20.8 |

Task item: Fill in cytotoxicity at 70.5 h for record "CN1CCC(N(Cc2ccccc2)C(=O)c2ccn3cncc3c2)CC1"
Reply: 3.64

Task item: Fill in cytotoxicity at 70.5 h for record Cc1occc1C(=O)N1CCc2ncnc(C3CCOC3)c2CC1 (centres undefined)
Reply: -12.9

Task item: Fill in cytotoxicity at 70.5 h for record "Cn1c(C2CC2)nc2c1CCN(CC(=O)Nc1nncs1)C2"
Reply: -18.2

Task item: Fill in cytotoxicity at 70.5 h for record "N#Cc1cc(C#N)c(SCC(=O)Nc2ccc(F)cc2)nc1N"
Reply: 5.41

Task item: Fill in cytotoxicity at 70.5 h for record "CN1CCN(c2ccccc2CNC(=O)Cc2cccc(F)c2)CC1"
Reply: 9.04

Task item: Fill in cytotoxicity at 70.5 h for record "Cc1cccc(-n2cc(CNc3ncnc4c3CCNCC4)cn2)c1"
Reply: -10.3

* * *

PROTOCOL: Human HepG2 cell viability assay in 384 well format
Assay type: toxicity, cell-based
Set-up: dose 125 nL, time 70.5 hour; concentration not given beside the values
CONDITIONS_USED: HepG2 cells, read-out: Inhibition
PROPERTY_LABEL: cytotoxicity at 70.5 h (%)
Could you give me the number in %? Just the number is fine.

| COMPOUND | cytotoxicity at 70.5 h [%] |
| --- | --- |
| O=C(C1CCOCC1)N1C[C@H]2CCC[C@@]2(COCc2ccccn2)C1 | -10.2 |
| N#CC1(NC(=O)c2nccc3ccccc23)CCC2(CC1)OCCO2 | -25.4 |
| COC[C@@]12CCO[C@@H]1CCN(C(=O)C1CCOCC1)C2 | -11.6 |
| N#Cc1cc(F)c(NCCc2ccc(F)cc2)c(F)c1 | -2.9 |
| CCN(CC)[C@@H]1CN(Cc2cnn(C)c2)[C@@H]2COC[C@H]12 | -5.97 |

Task item: Fill in cytotoxicity at 70.5 h for record "CCn1cc(NC(=O)CN2C(=O)CC(C)(C)c3ccccc32)cn1"
Reply: -4.43

Task item: Fill in cytotoxicity at 70.5 h for record O=C(CC1CCCO1)N1CCCN(c2cccnn2)CC1 (stereo unspecified)
Reply: -3.32

* * *

Entries and their cytotoxicity at 70.5 h values follow.
PROTOCOL: Human HepG2 cell viability assay in 384 well format
Format: toxicity, cell-based
Design: dose 125 nL, time 70.5 hour; concentration not given beside the values
CONDITIONS_USED: HepG2 cells, read-out: Inhibition
Could you give me the number in %? Just the number is fine.

| COMPOUND | cytotoxicity at 70.5 h / % |
| --- | --- |
| Cn1cc(CN2CCCC3(CCCN3S(C)(=O)=O)C2)cn1 (stereo unspecified) | -16.8 |
| CNC(=O)[C@@H](c1ccccc1)N1CCC[C@H]1C(=O)NC1CCCCC1 | -2.47 |
| Cc1nccc(CN2CC[C@H](Oc3cccc(F)c3)[C@@](C)(O)C2)n1 | -3.99 |
| Cc1cc(=O)[nH]c(NC2CCN(S(=O)(=O)c3ccccc3)CC2)n1 | -2.77 |
| Nc1cc(C(=O)NCC2CCN(Cc3cccc(O)c3)C2)ccn1 (stereo unspecified) | 18.3 |
| CC1(C)CNC(=O)c2nc(CCN3CCC(O)CC3)[nH]c2C1 | -1.47 |
| COc1ccc(CCC(=O)Nc2cccnc2N2CCCC2)cc1Br | -5.48 |
| CC(C)Oc1cccc(C(=O)C2CCCN(C(=O)c3ccccn3)C2)c1 (stereo unspecified) | -8.75 |
| Cc1cc(C)n(CC(=O)NCc2ccccn2)n1 | -10.7 |
| O=C(N[C@H]1COC[C@@H]1N1CCCC1)c1csc(-c2cccs2)n1 | -10.9 |

Please find the next compound below.
Task item: Fill in cytotoxicity at 70.5 h for record Cc1csc(C2CCCN(C(=O)c3cnc4n[nH]c(C)c4c3)C2)n1 (stereo unspecified)
Reply: -10.8

* * *

PROTOCOL: Human HepG2 cell viability assay in 384 well format
Assay type: toxicity, cell-based
Set-up: dose 125 nL, time 70.5 hour; concentration not given beside the values
CONDITIONS_USED: HepG2 cells, read-out: Inhibition
Entries and their cytotoxicity at 70.5 h values follow.
Could you give me the number in %? Just the number is fine.

| COMPOUND | cytotoxicity at 70.5 h, % |
| --- | --- |
| Cc1ccc(C(=O)N2CCc3c(CN4CCCC4)nn(C)c3C2)cc1C | -2.24 |
| COCCN1CCN(c2nc(O)cc(Cc3ccccc3F)n2)CC1 | -5.81 |

Task item: Fill in cytotoxicity at 70.5 h for record "CC(C)NC(=O)N1CCC2(CC1)C(=O)NCCN2Cc1ccccc1"
Reply: -7.72

Task item: Fill in cytotoxicity at 70.5 h for record CCCC1(CO)CCCN(C(=O)CCCn2nc(C)cc2C)C1 (stereo unspecified)
Reply: -0.556

Task item: Fill in cytotoxicity at 70.5 h for record "CCc1nc(CN2CCCN(C(=O)c3ccccc3)CC2)cs1"
Reply: -1.48

Task item: Fill in cytotoxicity at 70.5 h for record "O=C(COCC1CC1)Nc1cc(S(=O)(=O)NC2CC2)ccc1F"
Reply: -2.2

* * *

Entries and their cytotoxicity at 70.5 h values follow.
PROTOCOL: Human HepG2 cell viability assay in 384 well format
Type: toxicity, cell-based
Parameters: dose 125 nL, time 70.5 hour; concentration not given beside the values
CONDITIONS_USED: HepG2 cells, read-out: Inhibition
Please append the unit to your numeric answer.

# example entries with known answers
| COMPOUND | cytotoxicity at 70.5 h |
| --- | --- |
| CN(Cc1nnc(C2CC2)n1C)C1CCN(Cc2ccccc2F)C1 (stereo not drawn) | -2.35% |
| COc1cc(C)ccc1OCc1nc(C(=O)N2CCC(C)CC2)co1 | -2.55% |
| CCCC(=O)n1ccn(S(=O)(=O)c2ccc(C)cc2)c1=O | -14.8% |

Task item: Fill in cytotoxicity at 70.5 h for record "O=C(CCc1nc2cccnc2[nH]1)Nc1ccc2c(c1)OCC(=O)N2"
Reply: -10.5%

Task item: Fill in cytotoxicity at 70.5 h for record "CCOc1cccc(C(=O)Nc2ccn(CC)n2)c1"
Reply: -19.9%

Task item: Fill in cytotoxicity at 70.5 h for record "CO[C@H]1CN(C(C)C)C[C@@H]1NC(=O)c1cc(-c2ccccc2F)n[nH]1"
Reply: -6.15%
